SI IC50 MCF10A/IC50 MCF-7 by entry:
System: MCF-7
Assay: MTT cell viability assay, MCF-7 (2D culture)
Assay type: cell-based, human
Settings: selectivity index
Returns: the value as a bare number; no unit string appended.

Some compounds with known SI IC50 MCF10A/IC50 MCF-7 results, for comparison:
compound	SI IC50 MCF10A/IC50 MCF-7
CCCCCn1cc(C(=O)O)c(=O)c2cc(C3=CC(=O)c4ccccc4C3=O)ccc21 [Compound 11f]	0.11
CCn1cc(C(=O)O)c(=O)c2cc(C3=CC(=O)c4ccccc4C3=O)ccc21 [Compound 11d]	0.85
O=C1C=CC(=O)c2ccccc21 [1,4-Naphthoquinone, 1,4-naphthoquinone, reference compound]	0.30
CCCCCn1cc(C(=O)OCC)c(=O)c2cc(C3=CC(=O)c4ccccc4C3=O)ccc21 [Compound 11c]	0.31
CCOC(=O)c1cn(CC)c2ccc(C3=CC(=O)c4ccccc4C3=O)cc2c1=O [Compound 11a]	0.57
CCOC(=O)c1cn(Cc2ccccc2)c2ccc(C3=CC(=O)c4ccccc4C3=O)cc2c1=O [Compound 11b]	0.55

As a next step, examine the compound that follows.
Query :: Requested read-out: SI IC50 MCF10A/IC50 MCF-7. Entry: COc1cccc2c1C(=O)c1c(O)c3c(c(O)c1C2=O)C[C@@](O)(C(=O)CO)C[C@@H]3O[C@H]1C[C@H](N)[C@H](O)[C@H](C)O1 [Doxorubicin, reference compound]
Result :: 0.10
